meta.source: patent US20250243286A1

# Assayed system: ActRIIA and ActRIIB (on TGFB/SMAD SBE Reporter HEK293 cells) (human)
# Sequence (chain, as listed by the source, chain 1 of 2): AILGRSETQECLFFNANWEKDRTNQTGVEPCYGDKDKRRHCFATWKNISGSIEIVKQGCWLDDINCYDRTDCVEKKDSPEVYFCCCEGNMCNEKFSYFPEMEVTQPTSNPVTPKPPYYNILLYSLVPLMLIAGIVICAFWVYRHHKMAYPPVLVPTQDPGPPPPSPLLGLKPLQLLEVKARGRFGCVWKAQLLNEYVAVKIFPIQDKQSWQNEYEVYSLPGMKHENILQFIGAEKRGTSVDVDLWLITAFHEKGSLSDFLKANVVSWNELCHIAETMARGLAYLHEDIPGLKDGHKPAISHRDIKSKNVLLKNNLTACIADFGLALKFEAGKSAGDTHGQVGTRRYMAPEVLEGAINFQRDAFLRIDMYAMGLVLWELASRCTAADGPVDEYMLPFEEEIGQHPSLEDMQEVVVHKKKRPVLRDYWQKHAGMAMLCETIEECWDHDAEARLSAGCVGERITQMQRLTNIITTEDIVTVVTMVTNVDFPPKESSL
# Sequence (chain, as listed by the source, chain 2 of 2): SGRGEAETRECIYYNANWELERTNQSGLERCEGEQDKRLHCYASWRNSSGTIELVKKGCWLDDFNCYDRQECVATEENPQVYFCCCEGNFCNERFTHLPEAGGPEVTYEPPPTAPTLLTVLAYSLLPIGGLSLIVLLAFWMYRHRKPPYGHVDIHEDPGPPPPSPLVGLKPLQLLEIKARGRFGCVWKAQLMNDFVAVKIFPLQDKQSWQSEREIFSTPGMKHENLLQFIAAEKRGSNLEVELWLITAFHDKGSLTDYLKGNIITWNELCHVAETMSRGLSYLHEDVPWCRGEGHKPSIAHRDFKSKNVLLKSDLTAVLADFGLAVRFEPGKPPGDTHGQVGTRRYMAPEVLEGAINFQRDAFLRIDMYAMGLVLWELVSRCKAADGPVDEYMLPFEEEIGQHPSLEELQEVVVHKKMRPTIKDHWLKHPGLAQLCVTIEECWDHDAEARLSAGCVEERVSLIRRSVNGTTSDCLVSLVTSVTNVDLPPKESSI
# Protocol text: cell-based or functional assay
Note to self: IC50, Activin SMAD RGA under 500 pM means 1, ties and anything higher get 0.

{"Binder": "Antibody Hegemark (antibody, V domains shown) VH: QVQLVQSGAEVKKPGSSVKVSCKASGYKFTSSYINWVRQAPGQGLEWMGTINAVSGSTSYAQKFQGRVTITADTSTSTAYMELSSLRSEDTAVYYCARGGWFDYWGQGTLVTVSS VL: QSALTQPRSVSGSPGQSVTISCTGTSSDVGSKNYVNWYQQHPGKAPKLMIYGVSKRHSGVPDRFSGSKSGNTASLTISGLQAEDEADYYCGTFAGGKYYGVFGGGTKLTVL", "Cat": 1}
{"Binder": "Antibody Oierspätzla (antibody, V domains shown) VH: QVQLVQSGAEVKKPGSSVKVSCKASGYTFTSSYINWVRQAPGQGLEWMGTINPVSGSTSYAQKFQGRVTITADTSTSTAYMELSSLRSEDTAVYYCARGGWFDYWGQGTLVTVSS VL: QSALTQPRSVSGSPGQSVTISCTGTSSDVGSYNYVNWYQQHPGKAPKLMIYGVSKRESGVPDRFSGSKSGNTASLTISGLQAEDEADYYCGTFAGGAYYGVFGGGTKLTVL", "Cat": 1}
{"Binder": "Antibody Rauchfloisch (antibody, V domains shown) VH: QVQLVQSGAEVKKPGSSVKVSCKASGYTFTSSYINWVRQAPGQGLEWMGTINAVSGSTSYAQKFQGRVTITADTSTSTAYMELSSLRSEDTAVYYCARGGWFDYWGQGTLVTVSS VL: QSALTQPRSVSGSPGQSVTISCTGTSSDVGSRNYVNWYQQHPGKAPKLMIYGVSKRESGVPDRFSGSKSGNTASLTISGLQAEDEADYYCGTFAGGDYYGVFGGGTKLTVL", "Cat": 0}
{"Binder": "Antibody Zibebe (antibody, V domains shown) VH: QVQLVQSGAEVKKPGSSVKVSCKASGYKFTSSYINWVRQAPGQGLEWMGTINAVSGSTSYAQKFQGRVTITADESTSTAYMELSSLRSEDTAVYYCARGGWFDYWGQGTLVTVSS VL: QSALTQPRSVSGSPGQSVTISCTGTSSDVGSYNYVNWYQQHPGKAPKLMIYGVSKRESGVPDRFSGSKSGNTASLTISGLQAEDEADYYCGTFAGGKYYGVFGGGTKLTVL", "Cat": 0}
{"Binder": "Antibody Wiebela (antibody, V domains shown) VH: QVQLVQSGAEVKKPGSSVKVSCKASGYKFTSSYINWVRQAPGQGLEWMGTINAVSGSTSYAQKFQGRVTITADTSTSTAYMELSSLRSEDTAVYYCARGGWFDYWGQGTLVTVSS VL: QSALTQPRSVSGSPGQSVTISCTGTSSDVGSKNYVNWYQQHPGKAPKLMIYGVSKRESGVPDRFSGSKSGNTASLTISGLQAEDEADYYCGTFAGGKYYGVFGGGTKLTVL", "Cat": 1}
{"Binder": "Antibody Mauldascha (antibody, V domains shown) VH: QVQLVQSGAEVKKPGSSVKVSCKASGYTFTSSYINWVRQAPGQGLEWMGTINAVSGSTSYAQKFQGRVTITADESTSTAYMELSSLRSEDTAVYYCARGGWFDYWGQGTLVTVSS VL: QSALTQPRSVSGSPGQSVTISCTGTSSDVGSYNYVNWYQQHPGKAPKLMIYGVSKRESGVPDRFSGSKSGNTASLTISGLQAEDEADYYCGTFAGGKYYGVFGGGTKLTVL", "Cat": 0}
{"Binder": "Antibody Seela (antibody, V domains shown) VH: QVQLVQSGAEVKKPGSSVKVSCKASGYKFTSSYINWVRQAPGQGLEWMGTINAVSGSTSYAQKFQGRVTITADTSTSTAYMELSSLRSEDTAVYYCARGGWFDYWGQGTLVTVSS VL: QSALTQPRSVSGSPGQSVTISCTGTSSDVGSKNYVNWYQQHPGKAPKHMIYGVSKRESGVPDRFSGSKSGNTASLTISGLQAEDEADYYCGTFAGGKYYGVFGGGTKLTVL", "Cat": 1}
{"Binder": "Antibody Schnitzbrot (antibody, V domains shown) VH: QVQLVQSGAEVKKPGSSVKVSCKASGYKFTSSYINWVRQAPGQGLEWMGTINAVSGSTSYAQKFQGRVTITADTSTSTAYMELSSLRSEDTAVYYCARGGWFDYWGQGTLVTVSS VL: QSALTQPRSVSGSPGQSVTISCTGTSSDVGSYNYVNWYQQHPGKAPKLMIYGVSKRDSGVPDRFSGSKSGNTASLTISGLQAEDEADYYCGTFAGGKYYGVFGGGTKLTVL", "Cat": 1}
{"Binder": "Antibody Metzelsupp (antibody, V domains shown) VH: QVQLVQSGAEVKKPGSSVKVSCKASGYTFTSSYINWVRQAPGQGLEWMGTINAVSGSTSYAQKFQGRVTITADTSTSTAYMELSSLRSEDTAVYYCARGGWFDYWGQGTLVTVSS VL: QSALTQPRSVSGSPGQSVTISCTGTSSDVGSFNYVNWYQQHPGKAPKLMIRGVSKRESGVPDRFSGSKSGNTASLTISGLQAEDEADYYCGTFAGGAYYGVFGGGTKLTVL", "Cat": 0}
{"Binder": "Antibody Peitscheschdegga (antibody, V domains shown) VH: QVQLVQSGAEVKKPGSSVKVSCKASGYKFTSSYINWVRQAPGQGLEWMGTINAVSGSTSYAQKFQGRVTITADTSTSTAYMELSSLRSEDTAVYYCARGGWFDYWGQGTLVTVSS VL: QSALTQPRSVSGSPGQSVTISCTGTSSDVGSKNYVNWYQQHPGKAPKLMIHGVSKRESGVPDRFSGSKSGNTASLTISGLQAEDEADYYCGTFAGGKYYGVFGGGTKLTVL", "Cat": 1}
